- test name: in vivo
- measurement context: male, Sprague-Dawley (SD), rat, in vivo, po, 10 mg/kg, AUC0-∞ of 100
experimental readout: AUC(0-inf) (ng·h/mL)

>>> df
                                   compound  experimental_readout  endpoint_result
0  CN1CCN(C(=O)C2C3CCC(O3)C2C(=O)O)CC1 (stereo not shown)            AUC(0-inf)             3430

----------
- test name: Pharmacokinetic study of 157 (and metabolite endothal) in SD rats, iv and po; plasma, liver, brain
- Format: in vivo
- measurement context: female, SD (Sprague-Dawley), rat, in vivo, po, 1.5 mg/kg, 157 in plasma, PO 1.5 mg/kg, rat 1
experimental readout: AUC(0-inf) (ng·h/mL)

>>> print(df.to_string())
                                   molecule  units_symbol  endpoint_result
0  CCCCCCCOC(=O)C1C2CCC(O2)C1C(=O)N1CCN(C)CC1 (stereo not shown)       ng·h/mL              3.4

----------
- test name: in vivo
- Set-up: species or system SD rats
- measurement context: male, SD, rat, iv, 1.4 mg/kg, plasma concentration of 113
experimental readout: concentration at 1 h (ng/mL)

In [3]: df
Out[3]:
                                   compound  experimental_readout  endpoint_result
0  CN1CCN(C(=O)C2C(C(=O)OCC(Cl)(Cl)Cl)[C@H]3CC[C@@H]2O3)CC1 (stereo partly shown)  concentration at 1 h             10.8

----------
- test name: in vivo
- measurement context: female, Sprague-Dawley (SD), rat, in vivo, iv, 0.5 mg/kg, 100 brain concentration
experimental readout: concentration at 1 hr (ng/g)

>>> df
                                   molecule  endpoint_result
0  CN1CCN(C(=O)C2C3CCC(O3)C2C(=O)O)CC1 (stereo not shown) [Compound 100]             6.31
